condition label: 313.15 K; 101.33 kPa; Liquid; Concentric cylinders viscometry
Given measured viscosity, output y if it is greater than or equal to 4 mPa·s and n if not.

{"molecule": "CCCCCCCCCCCCCC(=O)OC [methyl tetradecanoate]", "class label": "n"}
{"molecule": "CCCCCCCCCCCCCCCC(=O)OC [methyl hexadecanoate]", "class label": "n"}
{"molecule": "CCCCCCCCCCCC(=O)OC [methyl dodecanoate]", "class label": "n"}

Task: Is it the case that CCCCCCCCCC(=O)OCC [ethyl decanoate] has viscosity reaching or exceeding 4 mPa·s?
Result: n

Task: API: above_or_equal(metric=viscosity, cutoff=4 mPa·s) for item CCCCCCCC(=O)OC [methyl octanoate]
Result: n

Task: Is viscosity for CCCCCCCCCCCCCCCCCC(=O)OC [methyl octadecanoate] at or above 4 mPa·s?
Result: y

----------
condition label: 283.15 K; 101.33 kPa; Liquid; Vibrating tube method
measured endpoint: mass density (kg/m3)
// units = kg/m3; emit number, no label

Below: 3 molecules and their reported mass density.
{"molecule": "CCCCCCCC/C=C\\CCCCCCCC(=O)OCC [ethyl (Z)-9-octadeceneoate]", "u": "kg/m3", "mass density": 876.9}
{"molecule": "CCCCCCCC/C=C\\CCCCCCCC(=O)OC [methyl cis-9-octadecenoate]", "u": "kg/m3", "mass density": 881.4}
{"molecule": "CCCCCCCCCCCC(=O)OCC [ethyl dodecanoate]", "u": "kg/m3", "mass density": 870.3}

Just so you know, measured mass density for CCCCCCCCCC(=O)OCC [ethyl decanoate] came out at 872.5

The measured mass density associated with CCCCCCCC(=O)OC [methyl octanoate] reads 885.9

The recorded mass density for entry CCCCCCCCCCCCCC(=O)OCC [ethyl tetradecanoate] equals 868.7

----------
condition label: 363.15 K; 101.33 kPa; Liquid; Vibrating tube method
measured endpoint: mass density (kg/m3)
Give the quantity in kg/m3, number only.

{"compound": "CCCCCCCCCCCCCCCCCC(=O)OCC [ethyl octadecanoate]", "u": "kg/m3", "reported value": 808.7}
{"compound": "CCCCC/C=C\\C/C=C\\CCCCCCCC(=O)OC [methyl (Z,Z)-9,12-octadecadienate]", "u": "kg/m3", "reported value": 835.1}
{"compound": "CCCCCCCC/C=C\\CCCCCCCC(=O)OCC [ethyl (Z)-9-octadeceneoate]", "u": "kg/m3", "reported value": 818.7}
{"compound": "CCCCCCCCCCCCCCCC(=O)OCC [ethyl hexadecanoate]", "u": "kg/m3", "reported value": 808.6}
{"compound": "CCCCCCCCCC(=O)OC [methyl decanoate]", "u": "kg/m3", "reported value": 814.5}

// sample CCCCCCCCCCCCCCCCCC(=O)OC [methyl octadecanoate] , its mass density was 813.7

Reported mass density for CCCCCCCCCCCCCCCC(=O)OC [methyl hexadecanoate] was 813.6

----------
Quick reference: viscosity of the listed items.
condition label: 298.15 K; 101.33 kPa; Liquid; Concentric cylinders viscometry
Express it in mPa·s; write the number only.

Example entries and their recorded answers appear below.
{"compound": "CCCCCCCCCC(=O)OCC [ethyl decanoate]", "reported value": 2.103}
{"compound": "CCCCCCCC(=O)OC [methyl octanoate]", "reported value": 1.313}
{"compound": "CCCCCCCCCCCC(=O)OCC [ethyl dodecanoate]", "reported value": 3.015}
{"compound": "CCCCCCCC/C=C\\CCCCCCCC(=O)OC [methyl cis-9-octadecenoate]", "reported value": 5.634}
{"compound": "CCCCCCCCCCCCCC(=O)OC [methyl tetradecanoate]", "reported value": 3.982}

Reported viscosity for CCCCC/C=C\C/C=C\CCCCCCCC(=O)OC [methyl (Z,Z)-9,12-octadecadienate] was 4.428

The reported viscosity of the compound CCCCCCCCCCCCCC(=O)OCC [ethyl tetradecanoate] was 4.188

Notebook: CCCCCCCCCCCC(=O)OC [methyl dodecanoate] , viscosity read as 2.824

// field: viscosity; key: CCCCCCCC/C=C\CCCCCCCC(=O)OCC [ethyl (Z)-9-octadeceneoate] ; value = 5.769

Query CCCCCCCCCC(=O)OC [methyl decanoate] yields viscosity of 1.933
